Data origin, for the record: PubChem BioAssay AID330

# Tested on: P388 leukemia ip, CD2F1 mice, survival T/C
# Test Method Notes: NCI In Vivo Anticancer Drug Screen. Data for tumor model P388 Leukemia (intraperitoneal) in CD2F1 (CDF1) mice
# Condition Set: endpoint: median survival time; dose: 400.0 mg/kg/injection; schedule: Q01DX005 (ip); vehicle: Klucel (hydroxypropylcellulose) (HPC); higher = longer survival
# Method: The antitumor activity of compounds was measured in mice bearing transplantable tumors. Survival or tumor size were measured and the results are expressed as the measurement made in the treated group (T) divided by the measurement made in the vehicle treated control group (C). The tumor model used in this assay is P388 Leukemia (intraperitoneal) in CD2F1 (CDF1) mice
Toxic doses and inconclusive results are not listed.
Experimental Endpoint: T/C

Sample records with T/C:
COc1cc(OC)c2c(O)c3c(=O)cc(C)oc3c(-c3c4cc(OC)cc(OC)c4c(O)c4c(=O)cc(C)oc34)c2c1 = 97 % of control
CCn1c(-c2ccc(OC(C)=O)cc2)c(C)c2cc(OC(C)=O)ccc21 = 100 % of control
CC1=C/C(O)CC(=O)Cc2nc(co2)C(=O)N2CCC=C2C(=O)OC(C(C)C)C(C)/C=C\C(=O)NC/C=C\1 (centres undefined) = 114 % of control

As a next step, examine the compound that follows.
Exercise: For the record Cc1ccc(S(=O)(=O)NCC(Cl)C#N)cc1 (centres undefined) , what value of T/C is listed for P388 leukemia ip, CD2F1 mice, survival T/C?
Solution: 102 % of control

---

# Tested on: P388 leukemia ip, CD2F1 mice, survival T/C
# Test Method Notes: NCI In Vivo Anticancer Drug Screen. Data for tumor model P388 Leukemia (intraperitoneal) in CD2F1 (CDF1) mice
# Condition Set: endpoint: median survival time; dose: 25.0 mg/kg/injection; schedule: Q01DX009 (ip); vehicle: saline
# Method: The antitumor activity of compounds was measured in mice bearing transplantable tumors. Survival or tumor size were measured and the results are expressed as the measurement made in the treated group (T) divided by the measurement made in the vehicle treated control group (C). The tumor model used in this assay is P388 Leukemia (intraperitoneal) in CD2F1 (CDF1) mice
Toxic doses and inconclusive results are not listed. Rule for the calls: active = survival T/C of 150% or more; inactive = T/C below 125% in these data.
Could you please pick one outcome from this set? active, inactive

Check out these entries, answers already filled in.
C[N+]1(C)CCOCC1 = inactive
C[N+](C)(C)CCBr = inactive
COP(=O)(OC)C(O)C1CCCCC1 (stereo unspecified) = inactive
O=C(O)C(O)C(O)C(=O)O.[Bi].[Na+] (stereo unspecified) = inactive
CO[C@@]12[C@H](COC(N)=O)C3=C(C(=O)C(C)=C(N)C3=O)N1C[C@H]1[C@@H]2N1C(=O)[C@@H]1N2C(=O)[C@@H](NC(=O)Cc3ccccc3)[C@H]2SC1(C)C = active

Here is another compound to look at.
Exercise: Which result was noted for this compound in the test: O=C(O)Cc1ccc([N+](=O)[O-])cc1[N+](=O)[O-]
Solution: inactive

---

# Tested on: P388 leukemia ip, CD2F1 mice, survival T/C
# Test Method Notes: NCI In Vivo Anticancer Drug Screen. Data for tumor model P388 Leukemia (intraperitoneal) in CD2F1 (CDF1) mice
# Condition Set: endpoint: median survival time; dose: 50.0 mg/kg/injection; schedule: Q01DX009 (ip); vehicle: Klucel (hydroxypropylcellulose) (HPC); higher = longer survival
Inconclusive results and toxic doses are left out.
Measured T/C accompanies every entry in the list below.

CSc1nc2ccc(NC(=O)/C=N/O)cc2s1 = 91 % of control
Cc1nn(C(=O)c2ccncc2)c(C)c1N=Nc1ccccc1[N+](=O)[O-] = 102 % of control
CCOc1ccccc1/C=C1\CCc2ccccc2C1=O = 100 % of control
Nc1nc(N)c(C(=O)SCc2ccccc2)nc1Cl = 107 % of control
O=C(C(Br)(Br)Br)C(Br)(Br)c1ccccc1 = 101 % of control

Exercise: Give the measured T/C of C=C1C(=O)OC2CC3(C)CCCC(C)C3=CC12 (stereo not given) .
Solution: 101 % of control

Exercise: Give the measured T/C of COc1ccc(OC)c(N2C(=O)C(=O)C(C(C)=O)C2=O)c1 (stereo not given) .
Solution: 107 % of control

Exercise: Give the measured T/C of Clc1cccc(N=Cc2ccc(C=Nc3cccc(Cl)c3Cl)cc2)c1Cl .
Solution: 94 % of control

Exercise: Give the measured T/C of Nc1ccc(-c2csc(-c3ccc(Br)cc3)n2)cc1 .
Solution: 88 % of control

Exercise: Give the measured T/C of c1ccc2c(c1)Sc1ccccc1N2Cc1cnc[nH]1 .
Solution: 101 % of control
